target: human NaV 1.8 (Homo sapiens); assay: E-VIPR assay for detecting and measuring NaV inhibition properties; assay type: cell-based; conditions: E-VIPR assay conducted in the presence of human serum; HEK cells expressing truncated human NaV 1.8; read-out: IC50
OUTCOME MEASURE: pIC50
Answers are plain numbers, as −log10 of the molar value.

INSERT INTO assay_data (compound, recorded_result) VALUES
  ('COc1cc(OC(F)(F)F)ccc1Oc1cc(OC(F)(F)F)cc(C)c1C(=O)Nc1ccnc(C(N)=O)c1', 7.89);

// batch mode: one pIC50 value per listed entry
1. COc1cc(OC(F)(F)F)ccc1Oc1cc(OC)c(F)c(F)c1C(=O)Nc1ccnc(C(N)=O)c1
2. NC(=O)c1ccc(NC(=O)c2c(Oc3ccc(Cl)cc3F)ccc(C(F)(F)F)c2F)cn1
3. COc1cc(Oc2ccc(OC(F)(F)F)c(F)c2OC)c(C(=O)Nc2ccc(C(N)=O)nc2)c(F)c1C(F)(F)F
4. [2H]C([2H])([2H])Oc1cc(OC(F)(F)F)ccc1Oc1cc(C2=COCCC2)cc(F)c1C(=O)Nc1ccnc(C(N)=O)c1
5. COc1c(Oc2cc3c(c(C)c2C(=O)Nc2ccnc(C(N)=O)c2)OC(F)(F)O3)ccc(OC(F)(F)F)c1F
6. Cc1cnc(C(N)=O)cc1NC(=O)c1c(Oc2ccc(OC(F)(F)F)cc2C)ccc(C(F)(F)F)c1F
7. Cc1c(C(F)(F)F)ccc(Oc2ccc(OC(F)(F)F)cc2F)c1C(=O)Nc1ccnc(C(N)=O)c1
8. COc1c(C(F)(F)F)ccc(Oc2ccccc2)c1C(=O)Nc1ccnc(C(N)=O)c1

Result:
1. 7.70
2. 5.82
3. 7.96
4. 7.52
5. 8.08
6. 7.59
7. 7.08
8. 5.74

---

Biological target: human NaV 1.8 (Homo sapiens, UniProt Q9Y5Y9)
Sequence (Q9Y5Y9 whole entry, looked up, the tested form may be a part): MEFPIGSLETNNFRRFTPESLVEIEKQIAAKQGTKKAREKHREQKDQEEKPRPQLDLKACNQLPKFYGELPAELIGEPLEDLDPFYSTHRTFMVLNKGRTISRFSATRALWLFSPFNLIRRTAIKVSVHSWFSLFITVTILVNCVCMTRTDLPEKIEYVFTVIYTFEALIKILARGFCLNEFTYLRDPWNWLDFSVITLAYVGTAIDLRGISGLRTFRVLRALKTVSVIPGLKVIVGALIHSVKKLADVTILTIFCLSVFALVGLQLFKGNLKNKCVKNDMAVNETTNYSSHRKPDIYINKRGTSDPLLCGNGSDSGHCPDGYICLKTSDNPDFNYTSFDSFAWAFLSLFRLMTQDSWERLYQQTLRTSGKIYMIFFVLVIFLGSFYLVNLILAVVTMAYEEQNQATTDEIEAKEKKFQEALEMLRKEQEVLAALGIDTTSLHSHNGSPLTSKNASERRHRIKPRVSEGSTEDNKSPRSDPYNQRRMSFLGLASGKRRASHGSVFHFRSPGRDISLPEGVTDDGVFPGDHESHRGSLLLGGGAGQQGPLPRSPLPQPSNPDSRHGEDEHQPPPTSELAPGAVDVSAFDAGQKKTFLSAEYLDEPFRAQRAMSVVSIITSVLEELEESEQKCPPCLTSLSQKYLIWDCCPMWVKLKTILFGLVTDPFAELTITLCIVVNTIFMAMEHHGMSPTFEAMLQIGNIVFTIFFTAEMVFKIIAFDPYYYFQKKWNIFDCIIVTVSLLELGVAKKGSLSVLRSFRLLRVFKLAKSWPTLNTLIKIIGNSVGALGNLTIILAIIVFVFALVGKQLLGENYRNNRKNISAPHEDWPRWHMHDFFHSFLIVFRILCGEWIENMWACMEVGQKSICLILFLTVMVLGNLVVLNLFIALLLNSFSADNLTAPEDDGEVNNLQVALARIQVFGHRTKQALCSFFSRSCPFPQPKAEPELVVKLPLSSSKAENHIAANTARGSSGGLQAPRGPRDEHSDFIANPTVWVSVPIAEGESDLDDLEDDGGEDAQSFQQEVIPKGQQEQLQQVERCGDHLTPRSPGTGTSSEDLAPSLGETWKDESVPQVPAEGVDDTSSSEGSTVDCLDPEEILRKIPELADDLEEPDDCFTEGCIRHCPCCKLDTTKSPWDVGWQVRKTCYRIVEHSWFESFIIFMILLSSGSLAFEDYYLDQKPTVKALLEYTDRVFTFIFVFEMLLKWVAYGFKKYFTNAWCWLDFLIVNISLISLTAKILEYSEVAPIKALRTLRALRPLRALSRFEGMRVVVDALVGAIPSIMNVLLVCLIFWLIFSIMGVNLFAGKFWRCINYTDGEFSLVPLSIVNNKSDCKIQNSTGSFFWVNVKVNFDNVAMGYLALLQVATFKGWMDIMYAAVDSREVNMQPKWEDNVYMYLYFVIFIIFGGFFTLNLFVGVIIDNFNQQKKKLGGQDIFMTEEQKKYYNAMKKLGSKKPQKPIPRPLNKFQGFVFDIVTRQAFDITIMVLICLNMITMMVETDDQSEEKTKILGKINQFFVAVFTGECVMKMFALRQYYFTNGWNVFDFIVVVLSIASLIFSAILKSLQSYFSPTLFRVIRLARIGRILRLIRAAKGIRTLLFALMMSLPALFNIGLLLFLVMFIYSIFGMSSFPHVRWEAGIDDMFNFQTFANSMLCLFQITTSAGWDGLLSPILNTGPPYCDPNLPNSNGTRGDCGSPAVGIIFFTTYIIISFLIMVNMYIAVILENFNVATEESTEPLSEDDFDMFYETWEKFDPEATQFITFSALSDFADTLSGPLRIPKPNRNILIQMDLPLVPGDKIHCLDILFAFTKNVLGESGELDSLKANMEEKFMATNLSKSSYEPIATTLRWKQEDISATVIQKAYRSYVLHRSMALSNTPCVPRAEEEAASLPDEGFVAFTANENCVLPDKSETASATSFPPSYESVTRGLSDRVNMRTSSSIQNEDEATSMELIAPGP
Experiment: E-VIPR assay for detecting and measuring NaV inhibition properties
Assay type: cell-based
Conditions: E-VIPR assay conducted in the presence of human serum; HEK cells expressing truncated human NaV 1.8; read-out: IC50
Source text: Sodium ion channels are voltage-dependent proteins that can be activated by inducing membrane voltage changes by applying electric fields. The electrical stimulation instrument and methods of use, referred to as E-VIPR, are described in International Publication No. WO 2002/008748 A3 and C.-J. Huang et al. Characterization of voltage-gated sodium channel blockers by electrical stimulation and fluorescence detection of membrane potential, 24 Nature Biotech. […]
Categorize each record by its IC50 using low = under 9 nM, medium = from 9 nM up to 70 nM, high = 70 nM and over

Completed entries (count: 2):
INSERT INTO assay_data (compound, group_label) VALUES
  ('COc1cc(OC(F)(F)F)ccc1Oc1ccc(C(F)(F)F)c(SC)c1C(=O)Nc1ccnc(C(N)=O)c1', 'low'),
  ('NC(=O)c1cc(NC(=O)c2c(Oc3ccc(OC(F)(F)F)cc3C3CC3)ccc(C(F)(F)F)c2F)ccn1', 'medium');

Problem: Which bin should I file [2H]C([2H])([2H])Oc1cc(OC(F)(F)F)ccc1Oc1cc(-c2ccncc2)cc(F)c1C(=O)Nc1ccnc(C(N)=O)c1 under?
Result: high

Problem: Thanks! And COc1cc(OC(F)(F)F)ccc1Oc1cc(C2=CCC(C(F)(F)F)CC2)ccc1C(=O)Nc1ccnc(C(N)=O)c1 (centres unmarked) [Compound 1029] ?
Result: high

Problem: Thanks! And COc1cc(C)cc(OC)c1Oc1ccc(C(F)(F)F)c(C)c1C(=O)Nc1ccnc(C(N)=O)c1 ?
Result: high

Problem: Thanks! And COc1c(Oc2ccc(C(F)(F)F)c(Cl)c2C(=O)Nc2ccnc(C(N)=O)c2)ccc(F)c1F ?
Result: low

Problem: Thanks! And NC(=O)c1cc(NC(=O)c2ccc(C(F)(F)F)cc2Oc2ccc(F)cc2Cl)ccn1 ?
Result: high

Problem: Thanks! And Cc1cc(F)ccc1Oc1ccc(C(F)(F)F)cc1C(=O)Nc1ccnc(C(N)=O)c1 ?
Result: high
